systemTested: HIV-RT (HIV reverse transcriptase)
assayInfo: Inhibitory activity against HIV-RT
pIC50: −log10 of the molar value.

| molecule | pIC50 |
| --- | --- |
| CC(C)[C@@H]1CC[C@]2(C(=O)O)CC[C@]3(C)[C@H](CC[C@@H]4[C@@]5(C)CC[C@H](OC(=O)COCC(=O)O)C(C)(C)[C@@H]5CC[C@]43C)[C@@H]12 | < 3.76 |
| C=C(C)[C@@H]1CC[C@]2(C(=O)O)CC[C@]3(C)[C@H](CC[C@@H]4[C@@]5(C)CC[C@H](OC(=O)CC(C)(C)CC(=O)O)C(C)(C)[C@@H]5CC[C@]43C)[C@@H]12 | < 3.78 |
| CC(C)[C@@H]1CC[C@]2(C(=O)O)CC[C@]3(C)[C@H](CC[C@@H]4[C@@]5(C)CC[C@H](O)C(C)(C)[C@@H]5CC[C@]43C)[C@@H]12 [Dihydrobetulinic acid] | < 3.66 |
| CC(C)[C@@H]1CC[C@]2(C(=O)O)CC[C@]3(C)[C@H](CC[C@@H]4[C@@]5(C)CC[C@H](OC(=O)CC(C)(C)CC(=O)O)C(C)(C)[C@@H]5CC[C@]43C)[C@@H]12 | < 3.78 |
| C=C(C)[C@@H]1CC[C@]2(C(=O)O)CC[C@]3(C)[C@H](CC[C@@H]4[C@@]5(C)CC[C@H](OC(=O)C(C)(C)CC(=O)O)C(C)(C)[C@@H]5CC[C@]43C)[C@@H]12 | < 3.77 |

// provenance: BindingDB's records for doi:10.1021/jm950922q
